target: human MC4R (Homo sapiens, UniProt P32245); construct: host or cells: HEK-293 cells stably expressing the GScAMP22F split-luciferase cAMP sensor and hMC4R, G418 selection; assay: split-luciferase cAMP sensor assay, agonist mode (measurement window 1), hMC4R; assay type: cell-based
Sequence (P32245 whole entry): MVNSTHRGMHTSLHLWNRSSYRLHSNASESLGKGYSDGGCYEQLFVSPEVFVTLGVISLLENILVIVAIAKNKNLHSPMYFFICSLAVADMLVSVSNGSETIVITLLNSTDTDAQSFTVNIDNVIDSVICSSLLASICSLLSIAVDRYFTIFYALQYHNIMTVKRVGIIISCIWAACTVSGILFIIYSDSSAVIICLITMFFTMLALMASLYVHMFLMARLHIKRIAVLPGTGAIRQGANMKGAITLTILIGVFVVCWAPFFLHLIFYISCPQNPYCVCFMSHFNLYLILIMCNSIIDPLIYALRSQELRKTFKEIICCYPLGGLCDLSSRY
Positions of bridges follow the written chain, without caps; N, C: chain ends. Non-standard residues stand in square brackets, D forms with d. Residues, ends and D or L forms follow the SMILES beside them. dPhe(4-Br) = N[C@H](Cc1ccc(Br)cc1)C(=O)O; dPhe(4-I) = N[C@H](Cc1ccc(I)cc1)C(=O)O; Nle = CCCC[C@H](N)C(=O)O

{"compound": "CC(=O)N[C@@H](CCCNC(=N)N)C(=O)N[C@H]1CSSC[C@@H](C(N)=O)NC(=O)[C@@H](C)NC(=O)[C@H](CCCNC(=N)N)NC(=O)[C@@H](Cc2ccc(Br)cc2)NC(=O)[C@H](CCCNC(=N)N)NC(=O)[C@@H](C)NC1=O [CTX-1260] (Ac-RC[dA]R[dPhe(4-Br)]R[dA]C-NH2; disulfide 2-8)", "measured-target": "human MC4R (Homo sapiens, UniProt P32245)", "MC4R selectivity vs MC3R": 0.05}
{"compound": "CCCC[C@H](NC(=O)[C@H](CCCNC(=N)N)NC(C)=O)C(=O)N[C@H]1CSSC[C@@H](C(N)=O)NC(=O)[C@@H](Cc2c[nH]c3ccccc23)NC(=O)[C@H](CCCNC(=N)N)NC(=O)[C@@H](Cc2ccc(I)cc2)NC(=O)[C@H](Cc2c[nH]cn2)NC1=O [CTX-1233] (Ac-R[Nle]CH[dPhe(4-I)]R[dW]C-NH2; disulfide 3-8 (inferred))", "measured-target": "human MC4R (Homo sapiens, UniProt P32245)", "MC4R selectivity vs MC3R": 1.88}
{"compound": "CC(=O)N[C@@H](CCCNC(=N)N)C(=O)N[C@H]1CSSC[C@@H](C(=O)N[C@@H](CCCNC(=N)N)C(=O)N[C@H](Cc2ccccc2)C(N)=O)NC(=O)[C@@H](Cc2c[nH]c3ccccc23)NC(=O)[C@H](CCCNC(=N)N)NC(=O)[C@@H](Cc2ccc(Br)cc2)NC(=O)[C@H](CCCNC(=N)N)NC(=O)[C@@H](C)NC1=O [CTX-1222] (Ac-RC[dA]R[dPhe(4-Br)]R[dW]CR[dF]-NH2; disulfide 2-8 (inferred))", "measured-target": "human MC4R (Homo sapiens, UniProt P32245)", "MC4R selectivity vs MC3R": 0.33}
